Quick reference: IC50 of the listed items.
biological target: human serotonin transporter (hSERT) (Homo sapiens, UniProt P31645); experiment: Inhibition of 3H-serotonin uptake in HEK-293 cells expressing hSERT; settings: HEK-293 cells with hSERT; 3H-5HT 50 nM; 5 min incubation at 25° C.; read-out: SRI IC50
Sequence (P31645 whole entry): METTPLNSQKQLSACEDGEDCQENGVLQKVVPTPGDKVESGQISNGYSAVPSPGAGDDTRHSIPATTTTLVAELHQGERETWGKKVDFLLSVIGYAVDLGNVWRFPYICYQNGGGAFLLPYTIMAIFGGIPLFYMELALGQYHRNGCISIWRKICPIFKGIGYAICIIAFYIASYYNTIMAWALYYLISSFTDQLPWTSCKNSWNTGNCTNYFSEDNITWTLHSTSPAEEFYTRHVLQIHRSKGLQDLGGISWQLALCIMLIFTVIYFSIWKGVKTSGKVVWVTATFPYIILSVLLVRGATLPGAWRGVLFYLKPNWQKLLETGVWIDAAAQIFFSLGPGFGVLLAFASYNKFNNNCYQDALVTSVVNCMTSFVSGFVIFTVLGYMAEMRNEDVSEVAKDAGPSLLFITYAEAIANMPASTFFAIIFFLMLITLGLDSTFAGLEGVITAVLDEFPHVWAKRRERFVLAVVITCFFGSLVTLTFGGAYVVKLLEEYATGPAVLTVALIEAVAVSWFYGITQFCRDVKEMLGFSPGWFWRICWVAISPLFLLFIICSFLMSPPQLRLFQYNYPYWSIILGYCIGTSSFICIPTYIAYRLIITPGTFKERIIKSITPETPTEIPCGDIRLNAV
Counter-ions that a name gives are not always drawn.
Express the reported value numerically, then name its unit.

>  <compound>
COc1cccc(C(=O)N(CC(C)C)[C@H]2CCNC2)c1C

>  <IC50>
10.9 nM

$$$$
>  <compound>
CC(C)CN(C(=O)c1cccc(Cl)c1Cl)[C@H]1CCNC1 [Example 1, citrate]

>  <IC50>
13.9 nM

$$$$
>  <compound>
O=C(c1ccccc1)N(Cc1ccc2ccccc2c1)[C@@H]1CCNC1 [Example 10, hydrochloride]

>  <IC50>
7.6 nM

$$$$
>  <compound>
CC(C)CN(C(=O)c1ccc(Cl)c(Cl)c1)[C@H]1CCNC1

>  <IC50>
7.5 nM

$$$$
>  <compound>
O=C(c1ccc(Cl)cc1)N(Cc1ccc(Cl)c(Cl)c1)[C@@H]1CCNC1 [Example 13, hydrochloride]

>  <IC50>
8.8 nM

$$$$

INPUT: Requested field: IC50. Item: CC(C)CN(C(=O)c1ccc(Cl)cc1Cl)[C@H]1CCNC1 [Example 2, hydrochloride]
OUTPUT: 9.7 nM

INPUT: Try the compound CCCCN(C(=O)c1cccc2ccccc12)[C@H]1CCNC1 [Example 12, hydrochloride]
OUTPUT: 21.5 nM

INPUT: Try the compound Cc1c(F)cccc1C(=O)N(CC(C)C)[C@H]1CCNC1
OUTPUT: 18.8 nM

INPUT: Try the compound CC(C)CN(C(=O)c1cc(F)c(Cl)cc1Cl)[C@H]1CCNC1 [Example 15, hydrochloride]
OUTPUT: 17.5 nM
